The measured values listed here are drawn from PubChem BioAssay (NCI).

Entries and their growth
Test system: OVCAR-8 ovarian
Assay: NCI-60 one-dose screen, 48 h (100 = growth as untreated, 0 = no growth, -100 = all killed)
Conditions: 10 µM unless noted
Compounds without any hit were thinned out: in the full panel of roughly 83,000, 20% have a hit.
measure: growth (%)

>  <molecule>
Cc1ccc2[nH]c(=O)c3c(c2c1)Oc1ncn2nc(-c4ccco4)nc2c1C3c1ccc(Cl)cc1 (stereo unspecified)

>  <unit-label>
%

>  <data-value>
93.4

$$$$
>  <molecule>
Cc1nn(-c2ccc(Cl)cc2)c2ncnc(N/N=C/c3cccc([N+](=O)[O-])c3)c12

>  <unit-label>
%

>  <data-value>
99.7

$$$$
>  <molecule>
COc1cc2c(cc1OCCCCCn1c3ccccc3c3ccccc31)N=C[C@@H]1CCCN1C2=O

>  <unit-label>
%

>  <data-value>
-30.6

$$$$
>  <molecule>
COc1cc(/C=C/C(=O)c2cccc(-n3cc(-c4cc(OC)c(OC)c(OC)c4)[nH]c3=O)c2)cc(OC)c1OC

>  <unit-label>
%

>  <data-value>
6.44

$$$$
>  <molecule>
COc1ccc(NC(=O)c2c(Nc3ccc(OC)cc3OC)n[nH]c2N)c(OC)c1

>  <unit-label>
%

>  <data-value>
96.4

$$$$
>  <molecule>
CN(C)c1nc2c(N)ncnc2n1C1OC(CO)C(O)C1O (stereo unspecified)

>  <unit-label>
%

>  <data-value>
107

$$$$
>  <molecule>
CCN(CC)c1ccc(/C=C2\Oc3ccc(O)c(I)c3C2=O)cc1

>  <unit-label>
%

>  <data-value>
61.7

$$$$
>  <molecule>
COc1cc(-c2ncn(/C=C\C(=O)OC(C)C)n2)cc(C(F)(F)F)c1

>  <unit-label>
%

>  <data-value>
9.36

$$$$
>  <molecule>
COc1cc(/C(C#N)=C/c2ccc3c(c2OC)OCO3)cc2c1OCO2

>  <unit-label>
%

>  <data-value>
28.8

$$$$
>  <molecule>
CCOC(=O)c1cn2c3c(cc(C)cc3c1=O)C(=O)/C(=C/c1ccccc1)C2

>  <unit-label>
%

>  <data-value>
82.1

$$$$
>  <molecule>
Cc1ccc(S(=O)(=O)Nc2c(Br)cc(Br)cc2C(N)=O)cc1

>  <unit-label>
%

>  <data-value>
105

$$$$
>  <molecule>
O=C1C2(c3ccccc3)C(c3ccccc3)=C(c3ccccc3)C1(c1ccccc1)C1CC=CC12 (stereo unspecified)

>  <unit-label>
%

>  <data-value>
87.5

$$$$
>  <molecule>
CSc1nc2c(c(=O)[nH]1)C(c1ccc(C)cc1)C=C(C(=O)O)N2 (stereo unspecified)

>  <unit-label>
%

>  <data-value>
105

$$$$
>  <molecule>
COc1cc(/C=C/C(=O)/C=C/c2cc(OC)c3c(c2)OCO3)cc2c1OCO2

>  <unit-label>
%

>  <data-value>
95.4

$$$$
>  <molecule>
COc1ccc(-c2nc(N3CCCC3=O)sc2Br)cc1OC

>  <unit-label>
%

>  <data-value>
103

$$$$
>  <molecule>
COc1ccc2c(c1)C(c1cc(OC)c3c(c1)OCO3)C1=C(COC1=O)N2 (stereo unspecified)

>  <unit-label>
%

>  <data-value>
19

$$$$
>  <molecule>
COC(=O)c1nc(-c2ccccc2)oc1S(=O)(=O)N1CCN(c2cccc(Cl)c2)CC1

>  <unit-label>
%

>  <data-value>
76.3

$$$$
>  <molecule>
CN(C)CCCN(c1nc(C(Cl)(Cl)Cl)ns1)c1nc(C(Cl)(Cl)Cl)ns1

>  <unit-label>
%

>  <data-value>
55.3

$$$$
>  <molecule>
C=C(C)[C@@H]1C[C@@H]2Cc3ccc(Cl)c(C)c3N1O2

>  <unit-label>
%

>  <data-value>
107

$$$$
>  <molecule>
Cc1ccc(NS(=O)(=O)c2cc(C)ccc2C)cc1

>  <unit-label>
%

>  <data-value>
54.8

$$$$
>  <molecule>
CN(C[C@H]1Cc2c(cccc2N2CCN(c3ncccn3)CC2)CN1)[C@H]1CCCc2cccnc21

>  <unit-label>
%

>  <data-value>
30

$$$$
